The reported measurements were obtained from paper PMC10141516.

# assay notes: Equilibrium solubility test (HPLC)
# protocol conditions: pH 2.0 buffer solution, pH 2, aqueous buffer, thermodynamic from solid

compound	solubility thermodynamic at 24 h [µg/mL]
CCOc1ccc(Cc2cc([C@@H]3O[C@H](CO)[C@@H](O)[C@H](O)[C@H]3O)ccc2Cl)cc1 [Dapagliflozin]	350

---

# assay notes: Equilibrium solubility test (HPLC)
# protocol conditions: deionized water, water, thermodynamic from solid
reported endpoint: solubility thermodynamic at 12 h (µg/mL)

chemical string	unit label	measured value
CCOc1ccc(Cc2cc([C@@H]3O[C@H](CO)[C@@H](O)[C@H](O)[C@H]3O)ccc2Cl)cc1	µg/mL	290

---

# assay notes: Apparent solubility test (USP <1236>)
# protocol conditions: buffer solution, 20 °C, pH 3, aqueous buffer, thermodynamic from solid

chemical string	solubility
CCOc1ccc(Cc2cc([C@@H]3O[C@H](CO)[C@@H](O)[C@H](O)[C@H]3O)ccc2Cl)cc1	100 to 1000 µg/mL

---

# assay notes: Equilibrium solubility test (HPLC)
# protocol conditions: buffer solution, pH 6, aqueous buffer, thermodynamic from solid

molecule	solubility thermodynamic at 24 h
CCOc1ccc(Cc2cc([C@@H]3O[C@H](CO)[C@@H](O)[C@H](O)[C@H]3O)ccc2Cl)cc1 [Dapagliflozin]	320 µg/mL

---

# assay notes: Equilibrium solubility test (HPLC)
# protocol conditions: pH 3, aqueous buffer, thermodynamic from solid

compound	solubility thermodynamic at 24 h
N[C@@H](CC(=O)N1CCn2c(nnc2C(F)(F)F)C1)Cc1cc(F)c(F)cc1F.O.O=P(O)(O)O [Sitagliptin]	1700 µg/mL

---

# assay notes: Apparent solubility test (USP <1236>)
# protocol conditions: pH 1.2 buffer solution, 20 °C, pH 1.2, aqueous buffer, thermodynamic from solid
# Method: Then, 200 μL of each solvent was added and stirred at 400 rpm. The temperature of the sample was maintained at 20 ± 2 °C. After shaking for 30 s every 5 min, 200 μL of each solvent was added until no particles of the API were visible. The apparent solubility of the two main components was estimated through the point at which all of the API dissolved and became clear.
reported endpoint: solubility

compound	measured value
CCOc1ccc(Cc2cc([C@@H]3O[C@H](CO)[C@@H](O)[C@H](O)[C@H]3O)ccc2Cl)cc1 [Dapagliflozin]	100 to 1000 µg/mL

---

# assay notes: Equilibrium solubility test (HPLC)
# protocol conditions: pH 1.2 buffer solution, pH 1.2, aqueous buffer, thermodynamic from solid
reported endpoint: solubility thermodynamic at 24 h (µg/mL)

compound	measured value
CCOc1ccc(Cc2cc([C@@H]3O[C@H](CO)[C@@H](O)[C@H](O)[C@H]3O)ccc2Cl)cc1 [Dapagliflozin]	340

---

# assay notes: Equilibrium solubility test (HPLC)
# protocol conditions: buffer solution, pH 5, aqueous buffer, thermodynamic from solid

chemical string	solubility thermodynamic at 12 h
CCOc1ccc(Cc2cc([C@@H]3O[C@H](CO)[C@@H](O)[C@H](O)[C@H]3O)ccc2Cl)cc1	370 µg/mL

---

# assay notes: Equilibrium solubility test (HPLC)
# protocol conditions: water, thermodynamic from solid
reported endpoint: solubility thermodynamic at 24 h (µg/mL)

chemical string	unit label	measured value
N[C@@H](CC(=O)N1CCn2c(nnc2C(F)(F)F)C1)Cc1cc(F)c(F)cc1F.O.O=P(O)(O)O	µg/mL	1420

---

# assay notes: Equilibrium solubility test (HPLC)
# protocol conditions: buffer solution, pH 6, aqueous buffer, thermodynamic from solid
reported endpoint: solubility thermodynamic at 12 h (µg/mL)

molecule	unit label	measured value
CCOc1ccc(Cc2cc([C@@H]3O[C@H](CO)[C@@H](O)[C@H](O)[C@H]3O)ccc2Cl)cc1 [Dapagliflozin]	µg/mL	320
